Target: Urease subunit alpha/Urease subunit beta (Helicobacter pylori (strain ATCC 700392 / 26695) (Campylobacterpylori), UniProt P69996)
Sequence (P69996 whole entry): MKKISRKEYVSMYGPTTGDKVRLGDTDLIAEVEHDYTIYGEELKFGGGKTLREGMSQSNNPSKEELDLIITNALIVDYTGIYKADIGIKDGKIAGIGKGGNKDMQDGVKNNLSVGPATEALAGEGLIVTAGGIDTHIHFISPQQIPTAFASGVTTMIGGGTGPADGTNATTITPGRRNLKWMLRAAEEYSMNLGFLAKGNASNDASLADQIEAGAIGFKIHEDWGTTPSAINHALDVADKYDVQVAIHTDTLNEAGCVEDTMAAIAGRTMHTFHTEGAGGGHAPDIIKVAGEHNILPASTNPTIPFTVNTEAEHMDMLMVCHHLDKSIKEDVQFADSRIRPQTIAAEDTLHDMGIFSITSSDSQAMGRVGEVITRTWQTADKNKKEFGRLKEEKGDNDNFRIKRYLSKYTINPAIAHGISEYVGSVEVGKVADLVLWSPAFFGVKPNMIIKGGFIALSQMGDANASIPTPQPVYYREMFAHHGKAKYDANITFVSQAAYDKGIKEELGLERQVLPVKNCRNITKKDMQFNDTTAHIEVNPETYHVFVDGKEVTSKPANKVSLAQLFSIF
Sequence (P14916 whole entry, further chain): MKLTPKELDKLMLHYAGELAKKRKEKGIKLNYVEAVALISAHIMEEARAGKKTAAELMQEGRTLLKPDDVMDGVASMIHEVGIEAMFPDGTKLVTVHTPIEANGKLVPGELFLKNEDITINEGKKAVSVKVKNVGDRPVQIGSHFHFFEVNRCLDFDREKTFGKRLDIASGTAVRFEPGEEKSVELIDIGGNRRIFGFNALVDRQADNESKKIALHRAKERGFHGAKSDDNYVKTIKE
Test: Inhibition of Helicobacter pylori ATCC 43504 urease assessed as reduction in ammonia production preincubated for 1.5 hrs under cell free condition by indophenol method
Assay type: protein-complex assay, Helicobacter pylori NCTC 11637 = CCUG 17874 = ATCC 43504
Readout kind: IC50 (nM)
Give bare numbers, in nM.

Guide cases for IC50, answers given:
{"columns": ["Sample smiles", "Value"],
 "data": [
  ["O=C(CNc1cccc([N+](=O)[O-])c1)NO", 8210],
  ["Cc1cc(C)cc(NCC(=O)NO)c1", 2120],
  ["O=C(CNc1ccc(Cl)cc1Cl)NO", 66100],
  ["O=C(CNc1cccc(Cl)c1Cl)NO", 14800],
  ["COc1ccccc1NCCC(=O)NO", 1640]
]}

Could you tell me IC50 for each of these compounds? They are listed below.
1. Cc1ccc(NCC(=O)NO)cc1
2. O=C(CCNc1ccc(F)cc1)NO
3. O=C(CCNc1ccc(Cl)cc1Cl)NO
4. O=C(CCNc1cc(Cl)ccc1Cl)NO

Reply:
3910
180
18
450
